Source of measurements: patent US9593097B2

molecular target: Axl phosphorylation in 293MSR-AxlWT6 cells (Homo sapiens (Human)); assay: Cellular Axl phosphorylation ELISA assay (Gas6-stimulated 293MSR-AxlWT6 cells); type: cell-based; details: Table 4A, read-out: CELL AXL IC50
Sequence (P30530 26-894): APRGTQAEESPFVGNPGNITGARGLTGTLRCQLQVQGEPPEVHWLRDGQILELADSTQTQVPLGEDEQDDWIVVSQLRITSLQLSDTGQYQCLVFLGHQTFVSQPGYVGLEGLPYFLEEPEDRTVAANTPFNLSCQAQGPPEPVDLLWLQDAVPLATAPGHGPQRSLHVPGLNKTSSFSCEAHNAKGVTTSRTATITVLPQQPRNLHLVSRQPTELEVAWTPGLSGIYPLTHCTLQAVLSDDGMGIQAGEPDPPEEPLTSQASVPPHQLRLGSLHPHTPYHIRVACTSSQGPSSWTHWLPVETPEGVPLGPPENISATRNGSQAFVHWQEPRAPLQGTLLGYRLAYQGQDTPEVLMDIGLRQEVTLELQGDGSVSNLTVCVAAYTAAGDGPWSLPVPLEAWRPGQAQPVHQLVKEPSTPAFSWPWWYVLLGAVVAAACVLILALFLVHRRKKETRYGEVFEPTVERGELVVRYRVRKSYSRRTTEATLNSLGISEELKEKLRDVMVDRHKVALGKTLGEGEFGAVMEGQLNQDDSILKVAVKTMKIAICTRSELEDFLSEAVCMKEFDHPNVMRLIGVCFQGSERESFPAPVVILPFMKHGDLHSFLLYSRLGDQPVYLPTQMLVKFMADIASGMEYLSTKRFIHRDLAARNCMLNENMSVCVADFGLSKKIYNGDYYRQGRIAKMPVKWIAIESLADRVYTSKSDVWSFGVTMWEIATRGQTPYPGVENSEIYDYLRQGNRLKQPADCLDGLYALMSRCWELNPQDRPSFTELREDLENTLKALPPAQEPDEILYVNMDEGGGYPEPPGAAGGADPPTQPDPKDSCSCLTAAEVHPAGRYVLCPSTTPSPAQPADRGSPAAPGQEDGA
pIC50: −log10 of the molar value.
Attribute measured: pIC50

[[record]]
molecule = "COC[C@@H](C)Oc1nc(C(=O)NCC(F)(F)F)cc(N2CCC(c3ccc(N)c(C(N)=O)n3)CC2)n1"
numeric_result = 7.54

[[record]]
molecule = "NC(=O)c1nc(C2CCN(c3cc(C(=O)NCC(F)(F)F)nc(OCC4CC4(F)F)n3)CC2)ccc1N (stereo not shown)"
numeric_result = 7.90

[[record]]
molecule = "C[C@H](CO)NC(=O)c1cc(N2CCC(c3c[nH]c4ncccc34)CC2)nc(OC[C@H]2C[C@H]2C#N)n1"
numeric_result = 8.10


A: CCOc1nc(C(=O)NC23CC(C2)C3)cc(N2CCC(c3nc(C(N)=O)ccc3OCCN(C)C)CC2)n1
B: N#C[C@@H]1C[C@@H]1COc1nc(C(=O)NC23CC(C2)C3)cc(N2CCC(c3n[nH]c4nccc(OCCO)c34)CC2)n1
Input: Hi! Which is lower in terms of pIC50, the first one A or the second one B ? Your answer should be the label attached to the chosen record.
Output: A

A: COC[C@@H](C)Oc1nc(C(=O)NC23CC(C2)C3)nc(N2CCC(c3ccc(N)c(C(N)=O)n3)CC2)n1
B: N#C[C@@H]1C[C@@H]1COc1nc(C(=O)NC23CC(C2)C3)cc(N2CC[C@H](c3n[nH]c4ncccc34)[C@H](F)C2)n1 (single isomer, unassigned)
Input: For the pair A and B , which entry has the numerically smaller recorded pIC50? Could you answer with the label of the item you picked?
Output: B
